Target: UniProt P08238
Experiment: Binding affinity to Hsp90 by fluorescence polarization assay
testReadout: EC50 (nM)
Field format: number, assumed nM, no unit text.

Notebook: pull reported EC50 for UniProt P08238, entry CC(C)NCCCn1c(Cc2cc3c(cc2I)OCO3)nc2c(N)nc(F)nc21 22

* * *

Recorded IC50, one value per entry.
Target: UniProt P08238
Test: Inhibition of Hsp90 in human MCF7 cells assessed as Her2 degradation
Assay type: cell-based
Enter the number, and then the unit.

Use these answered entries as a reference point.
1) CC(C)(C)CNCCn1c(Sc2nc3cccc(Cl)c3s2)nc2c(N)ncnc21; 35 nM
2) CCCCn1c(Sc2nc3cccc(Cl)c3s2)nc2c(N)ncnc21; 180 nM

I would be grateful if you could share the reported IC50 for Nc1ncnc2c1nc(Sc1nc3cccc(Cl)c3s1)n2CCNC1CC1 . 110 nM

* * *

System: MCF7
Test: Cytotoxicity against human MCF7 cells
Type: functional, cell-based
testReadout: IC50 (µM)
Field format: number, assumed µM, no unit text.

1) C[C@@H]1C[C@H]2C[C@@H]2/C=C\C=C\C(=O)Cc2c(Cl)c(O)cc(O)c2C(=O)O1; 0.043

I would be grateful if you could share the reported IC50 for C[C@@H]1C[C@H]2O[C@@H]2/C=C\C=C\C(=O)Cc2c(Cl)c(O)cc(O)c2C(=O)O1 . 0.023

* * *

System: HCT-116
Decide using GI50 alone. Strictly below 4 µM: Fulfilled. Equal to or above 4 µM: Not fulfilled.

Just wondering, is GI50 of O=S(=O)(Nc1ccc(O)c(-c2c(O)ccc3ccccc23)c1)c1cc(Cl)ccc1Cl below 4 µM? Not fulfilled

* * *

Target: Heat shock protein HSP 90-beta (Homo sapiens, UniProt P08238)
Sequence (P08238 whole entry): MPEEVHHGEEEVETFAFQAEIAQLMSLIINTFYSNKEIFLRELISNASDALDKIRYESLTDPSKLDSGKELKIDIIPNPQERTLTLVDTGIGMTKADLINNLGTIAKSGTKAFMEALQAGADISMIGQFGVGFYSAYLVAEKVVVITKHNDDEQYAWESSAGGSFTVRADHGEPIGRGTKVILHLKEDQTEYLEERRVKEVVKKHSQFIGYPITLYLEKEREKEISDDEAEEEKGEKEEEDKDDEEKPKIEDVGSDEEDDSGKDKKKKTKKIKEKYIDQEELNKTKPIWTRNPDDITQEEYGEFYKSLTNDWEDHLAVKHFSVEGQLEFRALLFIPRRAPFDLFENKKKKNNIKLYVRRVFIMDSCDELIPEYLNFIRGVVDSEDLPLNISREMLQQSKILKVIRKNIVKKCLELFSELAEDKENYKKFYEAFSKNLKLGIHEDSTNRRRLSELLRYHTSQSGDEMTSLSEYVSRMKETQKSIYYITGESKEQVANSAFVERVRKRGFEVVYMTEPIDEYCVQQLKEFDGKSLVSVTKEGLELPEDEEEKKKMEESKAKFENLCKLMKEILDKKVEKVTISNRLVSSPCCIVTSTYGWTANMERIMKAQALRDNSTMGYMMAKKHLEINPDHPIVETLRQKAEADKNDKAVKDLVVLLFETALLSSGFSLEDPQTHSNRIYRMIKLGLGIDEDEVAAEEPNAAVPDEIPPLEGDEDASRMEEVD
Assay: Binding affinity to Hsp90 in human SKBR3 cells
testReadout: Kd
Enter the number, and then the unit.

I would be grateful if you could share the reported Kd for CO[C@H]1C[C@H](C)Cc2cc(O)cc(c2)NC(=O)/C=C/CC[C@H](OC)[C@@H](OC(N)=O)/C(C)=C/[C@H](C)[C@H]1O . 16 nM

* * *

Tested on: HCT-116
Decide using GI50 alone. Strictly below 4 µM: Met. Equal to or above 4 µM: Not met.

// known answers, use as guide
1) Oc1cc(O)c(-c2n[nH]cc2N2CCN(Cc3ccccc3)CC2)cc1Cl; Not met
2) CCNC(=O)c1noc(-c2cc(C(C)C)c(O)cc2O)c1-c1ccc(CN(CC)CC)cc1; Met

Just wondering, is GI50 of CS(=O)(=O)c1ccc(CN2CCN(c3cn[nH]c3-c3cc(Cl)c(O)cc3O)CC2)cc1 below 4 µM? Met
